The measured values listed here are drawn from PubChem BioAssay (NCI).

Recorded growth inhibition by entry
- experimental details: NCI Yeast Anticancer Drug Screen. Data for the mlh1 rad18 strain (AID 175)
- measurement setup: S. cerevisiae mlh1 rad18 strain growth inhibition; at 50.0 µM (retest, dose inferred, filed as 5.0); stronger effect = higher value
About 79,000 compounds went through this panel and 15% of them were active in at least one assay; those are over-represented in the sample as a whole.
Field: numeric (%). Do not append units.

CCCCCCCCCCC[N+](C)(C)CCCCCC[N+](C)(C)CCCCCCCCCCC    99
c1ccc(-c2ccc(-c3ccc(C4=NCCN4)cc3)o2)cc1    95

If you can, please state the reported growth inhibition value of `Cc1ccc(S(=O)(=O)/C=C2\COc3ccccc3C2=O)cc1` .
99
